Tested on: M. tuberculosis H37Rv_DdnL49P_gfp
Type: cell-based, Mycobacterium tuberculosis
Settings: read-out: EC50 H37Rv_DdnL49P_gfp
Catalogue of EC50 values
experimental_readout: EC50

1) O=C(O)C1C2C=CC(C2)C1C(=O)Nc1nc2ccc([N+](=O)[O-])cc2s1 (stereo not drawn) [Example 38] : 5 to 10 µM
2) Cc1ccc(-c2ccc3nc(NC(=O)[C@@H]4C5C=CC(C5)[C@@H]4C(=O)O)sc3c2)cc1 (stereo partly drawn) [Example 53] : < 1 µM
3) O=C(Nc1nc2ccc(-c3ccncc3)cc2s1)[C@@H]1C2C=CC(C2)[C@@H]1C(=O)O (stereo partly drawn) [Example 64] : 5 to 10 µM
4) O=C(Nc1nc2ccc(-c3ccc(N4CCCCC4)cc3)cc2s1)[C@@H]1C2C=CC(C2)[C@@H]1C(=O)O (stereo partly drawn) [Example 100] : < 1 µM
5) O=C(Nc1nc2ccc(Nc3ccc(C(F)(F)F)cn3)cc2s1)[C@@H]1C2C=CC(C2)[C@@H]1C(=O)O (stereo partly drawn) [Example 96] : < 1 µM
6) O=C1[C@@H]2C3C=CC(C3)[C@@H]2C(=O)N1c1nc2ccc(Nc3cccc(F)n3)cc2s1 [Example 89] : 1 to 5 µM
7) C#CCOc1ccc2nc(N3C(=O)[C@@H]4[C@H](C3=O)[C@@H]3C=C[C@H]4C3)sc2c1 [Example 73] : < 1 µM
8) O=C(Nc1nc2ccc(C#Cc3ccccc3)cc2s1)[C@@H]1C2C=CC(C2)[C@@H]1C(=O)O (stereo partly drawn) [Example 77] : < 1 µM
9) O=C(Nc1nc2ccc(-c3ccoc3)cc2s1)[C@@H]1C2C=CC(C2)[C@@H]1C(=O)O (stereo partly drawn) [Example 69] : < 1 µM
10) COC(=O)c1ccc2nc(NC(=O)[C@@H]3C4C=CC(C4)[C@@H]3C(=O)O)sc2c1 (stereo partly drawn) [Example 41] : 1 to 5 µM
11) O=C1C2C3C=CC(C3)C2C(=O)N1c1nc2ccc(-c3ccccc3C(F)(F)F)cc2s1 (stereo not drawn) [Example 58] : 10 to 20 µM
12) O=C(Nc1nc2ccc(Oc3ccc(C(F)(F)F)cn3)cc2s1)[C@@H]1C2C=CC(C2)[C@@H]1C(=O)O (stereo partly drawn) [Example 35] : 1 to 5 µM
13) O=C(Nc1nc2ccc(Nc3ccnc(F)c3)cc2s1)[C@@H]1C2C=CC(C2)[C@@H]1C(=O)O (stereo partly drawn) [Example 99] : 1 to 5 µM
14) O=C1[C@@H]2C3C=CC(C3)[C@@H]2C(=O)N1c1nc2c(O)cccc2s1 [Example 74] : 1 to 5 µM
15) Cc1ccc2nc(NC(=O)[C@@H]3C4CCC(C4)[C@@H]3C(=O)O)sc2c1 (stereo in doubt) [Example 3] : 1 to 5 µM
16) O=C(Nc1nc2ccc(-c3ccccc3C(F)(F)F)cc2s1)[C@@H]1C2C=CC(C2)[C@@H]1C(=O)O (stereo partly drawn) [Example 57] : 10 to 20 µM
17) O=C(O)C1C2C=CC(C2)[C@H]1C(=O)Nc1nc2ccc(-c3ccc(C(F)(F)F)nc3)cc2s1 (stereo partly drawn) [Example 66] : 1 to 5 µM
18) COc1cc2nc(NC(=O)[C@@H]3C4C=CC(C4)[C@@H]3C(=O)O)sc2cc1OC (stereo partly drawn) [Example 9] : 5 to 10 µM
19) O=C(Nc1nc2ccc(Oc3ccc(F)cc3)cc2s1)[C@@H]1C2C=CC(C2)[C@@H]1C(=O)O (stereo partly drawn) [Example 21] : < 1 µM
20) O=C(Nc1nc2ccc(-c3ccc(OC(F)(F)F)cc3)cc2s1)[C@@H]1C2C=CC(C2)[C@@H]1C(=O)O (stereo partly drawn) [Example 62] : < 1 µM
21) O=C1[C@@H]2[C@H](C(=O)N1c1nc3ccc(Oc4cccc(C(F)(F)F)n4)cc3s1)[C@@H]1C=C[C@H]2C1 [Example 34] : 1 to 5 µM

Origin of values: patent US20250382273A1
